system: Androgen receptor (Homo sapiens) (UniProt P10275)
Sequence (P10275 whole entry, looked up): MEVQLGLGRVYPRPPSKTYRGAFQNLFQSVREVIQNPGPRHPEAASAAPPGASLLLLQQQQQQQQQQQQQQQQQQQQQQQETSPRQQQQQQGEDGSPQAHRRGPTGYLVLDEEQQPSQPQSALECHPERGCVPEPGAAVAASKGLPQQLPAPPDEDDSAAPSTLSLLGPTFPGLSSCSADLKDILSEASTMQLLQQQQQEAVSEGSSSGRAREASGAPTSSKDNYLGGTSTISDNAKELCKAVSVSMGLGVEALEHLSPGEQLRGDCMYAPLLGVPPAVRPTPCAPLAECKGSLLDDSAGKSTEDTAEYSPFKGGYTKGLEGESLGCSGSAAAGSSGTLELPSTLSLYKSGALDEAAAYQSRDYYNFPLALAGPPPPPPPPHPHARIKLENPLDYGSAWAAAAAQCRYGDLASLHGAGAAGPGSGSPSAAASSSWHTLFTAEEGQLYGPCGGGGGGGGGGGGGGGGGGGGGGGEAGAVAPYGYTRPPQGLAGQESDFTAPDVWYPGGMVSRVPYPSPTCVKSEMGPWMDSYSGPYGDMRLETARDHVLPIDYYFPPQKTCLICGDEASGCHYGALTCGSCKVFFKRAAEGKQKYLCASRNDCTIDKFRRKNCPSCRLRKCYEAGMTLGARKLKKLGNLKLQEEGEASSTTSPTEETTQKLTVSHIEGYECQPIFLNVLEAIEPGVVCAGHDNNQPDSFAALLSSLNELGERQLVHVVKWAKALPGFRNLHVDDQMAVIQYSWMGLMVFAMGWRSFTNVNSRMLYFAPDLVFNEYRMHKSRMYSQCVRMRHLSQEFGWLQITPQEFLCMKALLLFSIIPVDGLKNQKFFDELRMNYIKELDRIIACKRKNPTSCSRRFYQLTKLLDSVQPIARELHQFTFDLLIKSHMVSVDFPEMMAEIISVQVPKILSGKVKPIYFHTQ
measurement.description: qHTS assay to identify small molecule antagonists of the androgen receptor (AR) signaling pathway using the MDA cell line (AID 743042; also: % is scaled to controls: 0 for no effect and ±100 for the full control effect; nearly all actives have a fitted effect of over 55% in size)
measurement.context: MDA-kb2 AR-luc, MMTV luciferase, R1881 antagonist, 16 h; series mostly up to 70.3 µM
Results filed as inconclusive are left out. The source made the active and inactive calls. Calls follow the shape of the dose curve; as a rule, active = well fitted inhibition curve with a large enough effect in the repeat runs; inconclusive = weak or mixed curves, or effect the other way; inactive = no such curve, though single readings can be large or run the other way.
property: outcome

In [3]: df
Out[3]:
                                    molecule  assay_result
 0                      CC(C)NNC(=O)c1ccncc1      inactive
 1                  CCCCCCCCCC[N+](C)(C)[O-]      inactive
 2                  COC(=O)Nc1ccc(Cl)c(Cl)c1      inactive
 3      O=S(=O)(O)c1cc(O)c(O)c(S(=O)(=O)O)c1      inactive
 4  CC(=O)N[C@H]1[C@H]([C@H](O)[C@H](O)CO)OC(C(=O)O)=C[C@@H]1N=C(N)N      inactive
 5       CC1=NN(c2cccc(S(=O)(=O)O)c2)C(=O)C1      inactive
 6  COCCOC[C@H](CC1(C(=O)NC2CCC(C(=O)O)CC2)CCCC1)C(=O)Oc1ccc2c(c1)CCC2 (some centres not stated)      inactive
 7     CC(C)(C)c1ccc(-c2ccc(C(C)(C)C)cc2)cc1      inactive
 8         CCCCOCCOC(=O)COc1cc(Cl)c(Cl)cc1Cl      inactive
 9  CCCCS(=O)(=O)N[C@@H](Cc1ccc(OCCCCC2CCNCC2)cc1)C(=O)O      inactive
10         Cc1ccc(C(=O)c2ccc(CC(=O)O)n2C)cc1      inactive
11     CCCCCC(C)N (configuration not stated)      inactive

----------
system: Estrogen receptor beta (Homo sapiens)
measurement.description: qHTS assay to identify small molecule antagonists of the estrogen receptor beta (ER-beta) signaling pathway (AID 1259378); also: % is scaled to controls: 0 for no effect and ±100 for the full control effect
measurement.context: ER-beta-UAS-bla HEK293T, beta-lactamase FRET ratio, 16 h; series mostly up to 92.4 µM
Inconclusive results are not listed. Active and inactive are the calls of the source. Calls follow the shape of the dose curve; as a rule, active = well fitted inhibition curve with a large enough effect in the signal ratio in the repeat runs (not every such curve was filed as active); inconclusive = weak or mixed curves, or effect the other way; inactive = no such curve, though single readings can be large or run the other way; the % refers to the signal ratio.
property: outcome

>>> df
                                    molecule  property  assay_result
 0       C=C(C)C(=O)OCCOCCOCCOCCOC(=O)C(=C)C   outcome      inactive
 1                               CC(C)(N)C#N   outcome      inactive
 2                 CCO[Si](OCC)(OCC)c1ccccc1   outcome      inactive
 3                         CCCCCCCCN1CCCC1=O   outcome      inactive
 4                          CCOC(=O)c1ccccc1   outcome      inactive
 5                  c1ccc2sc(SN3CCOCC3)nc2c1   outcome      inactive
 6   C=C(C)C(=O)OCC(O)CO (centres undefined)   outcome      inactive
 7                               OCCc1ccccn1   outcome      inactive
 8  COc1c(N2CCNC(C)C2)c(F)cc2c(=O)c(C(=O)O)cn(C3CC3)c12 (centres undefined)   outcome      inactive
 9             CCCc1ncc(C[n+]2ccccc2C)c(N)n1   outcome      inactive
10                  CCCCCCCCCC[N+](C)(C)[O-]   outcome      inactive
11  O=C1NC(=O)C2CC=CCC12 (centres undefined)   outcome      inactive
12  CCCCc1nc(Cl)c(CO)n1Cc1ccc(-c2ccccc2-c2nn[nH]n2)cc1   outcome      inactive
13                     CC(C)C(=O)OC(=O)C(C)C   outcome      inactive

----------
measurement.description: qHTS RealTime-Glo MT Cell Viability Assay in HepG2 cells - 32 hour (AID 1224877); also: % is scaled to controls: 0 for no effect and ±100 for the full control effect; nearly all actives have a fitted effect of over 55% in size
measurement.context: RealTime-Glo luminescence; series mostly up to 76.8 µM
Inconclusive results are not listed. Activity calls are given as the source filed them. The call rests on the fitted dose curve; in most records, active means well fitted cell-killing curve with a large enough effect in the repeat runs; inconclusive means weak or mixed curves; inactive means flat fitted curve, though single readings scatter.
property: activity change, negative = cytotoxic

>>> print(df.to_string())
                                    compound                               property                   assay_result
 0  CC1=C(C/C=C(\C)CCC[C@H](C)CCC[C@H](C)CCCC(C)C)C(=O)c2ccccc2C1=O  activity change, negative = cytotoxic                       inactive
 1      O=S(=O)(O)c1cccc2c(S(=O)(=O)O)cccc12  activity change, negative = cytotoxic                       inactive
 2  CCC(C(=O)NC(=O)NC(C)=O)c1ccccc1 (stereo unspecified)  activity change, negative = cytotoxic                       inactive
 3                     O=C(O)CNC(=O)c1ccccc1  activity change, negative = cytotoxic                       inactive
 4        COc1cc(-c2ccc(=O)[nH]n2)ccc1OC(F)F  activity change, negative = cytotoxic                       inactive
 5        CC1(C)[C@@H]2CC[C@@]1(C)[C@H](O)C2  activity change, negative = cytotoxic                       inactive
 6                                    [Ca+2]  activity change, negative = cytotoxic                       inactive
 7                   CCNS(=O)(=O)c1ccc(C)cc1  activity change, negative = cytotoxic                       inactive
 8  CC(N)C12CC3CC(CC(C3)C1)C2 (stereo unspecified)  activity change, negative = cytotoxic                       inactive
 9                                 Nc1ccccn1  activity change, negative = cytotoxic                       inactive
10  C=COC(=O)C(C)(CC)CCC(C)C (stereo unspecified)  activity change, negative = cytotoxic                       inactive
11                      CCOC(=O)C(=O)CCCCCCl  activity change, negative = cytotoxic                       inactive
12  CCCc1nn(C)c2c(=O)[nH]c(-c3cc(S(=O)(=O)N4CCN(C)CC4)ccc3OCC)nc12  activity change, negative = cytotoxic                       inactive
13                      CN(C)CCCN(C)CCCN(C)C  activity change, negative = cytotoxic                       inactive
14                                   OCCCCCO  activity change, negative = cytotoxic                       inactive
15  CCOC(=O)COc1cc(-n2ncc(C(F)(F)F)c(C)c2=O)c(F)cc1Cl  activity change, negative = cytotoxic                       inactive
16                  O=C(c1ccccc1)C1(O)CCCCC1  activity change, negative = cytotoxic                       inactive
17  CNCC(O)c1ccc(O)c(O)c1 (stereo unspecified)  activity change, negative = cytotoxic                       inactive
18                     CC(C)C(=O)OC(=O)C(C)C  activity change, negative = cytotoxic                       inactive
19     CC(C)(C)c1ccc(-c2ccc(C(C)(C)C)cc2)cc1  activity change, negative = cytotoxic                       inactive
20                            CC(=O)c1cnccn1  activity change, negative = cytotoxic                       inactive
21       C=C(C)C(=O)OCCOCCOCCOCCOC(=O)C(=C)C  activity change, negative = cytotoxic                       inactive
22     CC(COc1ccccc1)NN (stereo unspecified)  activity change, negative = cytotoxic                       inactive
23                 CN(C)C(=O)Oc1ccc[n+](C)c1  activity change, negative = cytotoxic                       inactive
24              CC1=NS(=O)(=O)c2cc(Cl)ccc2N1  activity change, negative = cytotoxic                       inactive
25                      CCCCCCCCCCCCCCC(=O)O  activity change, negative = cytotoxic                       inactive
26  COc1cc(C(=O)OC(COCCC(C)C)CN2CCOCC2)cc(OC)c1OC (stereo unspecified)  activity change, negative = cytotoxic                       inactive
27    CC/C=C\CCOC(C)OCC (stereo unspecified)  activity change, negative = cytotoxic                       inactive
28                               C=CCCC(=O)O  activity change, negative = cytotoxic                       inactive
29  CC1=NN(c2cc(S(=O)(=O)O)ccc2Cl)C(=O)C1N=Nc1ccccc1 (stereo unspecified)  activity change, negative = cytotoxic                       inactive
30        CN1CCN(c2cc3c(nn2)Oc2ccccc2N3C)CC1  activity change, negative = cytotoxic  3.07% [at 15.8 µM] (inactive)
31         CN1CCC(=C2c3ccccc3CCc3cccnc32)CC1  activity change, negative = cytotoxic                       inactive
32           CC(C)(C#N)Nc1nc(Cl)nc(NC2CC2)n1  activity change, negative = cytotoxic                       inactive
33                        CCOC(=O)CCC(=O)OCC  activity change, negative = cytotoxic                       inactive
34                     CC(C)(CCC(=O)O)C(=O)O  activity change, negative = cytotoxic                       inactive
35  CN1[C@@H]2CC[C@H]1CC(OC(=O)C(O)c1ccccc1)C2 (stereo partly specified)  activity change, negative = cytotoxic                       inactive
36     CC(C)C1CCC(O)CC1 (stereo unspecified)  activity change, negative = cytotoxic                       inactive
37             NC(=O)N[C@@H](CCC(=O)O)C(=O)O  activity change, negative = cytotoxic                       inactive
38    CC(CC=O)CC(C)(C)C (stereo unspecified)  activity change, negative = cytotoxic                       inactive
39        CC1CCC(CO)CC1 (stereo unspecified)  activity change, negative = cytotoxic                       inactive
40  CC(=O)OCC(=O)[C@@]1(O)[C@H](C)C[C@H]2[C@@H]3CCC4=CC(=O)C=C[C@]4(C)[C@@]3(F)[C@@H](O)C[C@@]21C  activity change, negative = cytotoxic                       inactive
41                   N[C@@H](CCC(=O)O)C(=O)O  activity change, negative = cytotoxic                       inactive
42  CC(=O)N[C@H]1[C@H]([C@H](O)[C@H](O)CO)OC(C(=O)O)=C[C@@H]1N=C(N)N  activity change, negative = cytotoxic                       inactive
43  C=COCC1CCC(COC=C)CC1 (stereo unspecified)  activity change, negative = cytotoxic                       inactive
44                       [O-][n+]1cccc(CO)c1  activity change, negative = cytotoxic                       inactive
45                          C1CCC2=NCCCN2CC1  activity change, negative = cytotoxic                       inactive
46  C=CC(C)(CCC=C(C)C)OC(=O)CC (stereo unspecified)  activity change, negative = cytotoxic                       inactive
47                            C=CN1CCCCCC1=O  activity change, negative = cytotoxic                       inactive
48                      c1ccc(CCc2ccccc2)cc1  activity change, negative = cytotoxic                       inactive
49       CC1=NN(c2cccc(S(=O)(=O)O)c2)C(=O)C1  activity change, negative = cytotoxic                       inactive
50                             C=CC(=O)OCCCl  activity change, negative = cytotoxic                       inactive
51                                Nc1ccncc1N  activity change, negative = cytotoxic                       inactive
52  COc1cc(C(=O)NCc2ccc(OCCN(C)C)cc2)cc(OC)c1OC  activity change, negative = cytotoxic                       inactive
53  C[N+]1(CC2COC(c3ccccc3)(c3ccccc3)O2)CCCCC1 (stereo unspecified)  activity change, negative = cytotoxic    -9% [at 15.8 µM] (inactive)
54  CN(C)[C@@H]1C(=O)C(C(=O)NCN2CCCC2)=C(O)[C@@]2(O)C(=O)C3=C(O)c4c(O)cccc4[C@@](C)(O)C3C[C@@H]12 (stereo partly specified)  activity change, negative = cytotoxic                       inactive
55                     CC(C)(C)C(=O)c1ccccc1  activity change, negative = cytotoxic                       inactive
